Reported values of Kd for individual entries
biological target: C5, P01031; assay: Kd (SPR)
// units = nM; emit number, no label

Example entries and their recorded answers appear below.
[
  {
    "binder": "unnamed (protein) chain 1: QVQLVQSGAEVKKPGASVKVSCKASGYIFSNYWIQWVRQAPGQGLEWMGEILPGSGSTEYTENFKDRVTMTRDTSTSTVYMELSSLRSEDTAVYYCARYRYGDTPYIYFDYWGQGTLVTVSS chain 2: DIQMTQSPSSLSASVGDRVTITCGASENIYGALNWYQQKPGKAPKLLIYGATNLADGVPSRFSGSGSGTDFTLTISSLQPEDFATYYCQNVLNTPLTFGQGTKVEIK",
    "unitsSymbol": "nM",
    "Kd": 583
  },
  {
    "binder": "unnamed (protein) chain 1: QVQLVQSGAEVKKPGASVKVSCKASGYIFSNYWIQWVRQAPGQGLEWMGEILPGSGSTEYTENFKDRVTMTRDTSTSTVYMELSSLRSEDTAVYYCARYEYGDTPYIYFDYWGQGTLVTVSS chain 2: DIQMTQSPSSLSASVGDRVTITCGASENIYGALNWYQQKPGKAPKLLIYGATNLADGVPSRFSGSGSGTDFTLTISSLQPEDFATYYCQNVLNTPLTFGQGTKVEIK",
    "unitsSymbol": "nM",
    "Kd": 915
  }
]

Please examine the following record next.
(Q) Find the recorded Kd belonging to unnamed (protein) chain 1: QVQLVQSGAEVKKPGASVKVSCKASGYIFSNYWIQWVRQAPGQGLEWMGEILPGSGSTEYTENFKDRVTMTRDTSTSTVYMELSSLRSEDTAVYYCARYRWGDTPIIYFDYWGQGTLVTVSS chain 2: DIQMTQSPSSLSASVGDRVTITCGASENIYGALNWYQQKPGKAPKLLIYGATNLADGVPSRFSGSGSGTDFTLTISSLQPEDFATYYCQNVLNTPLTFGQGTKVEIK and report it.
(A) 502
